# Kd per entry
Target: T1, purified human activated C1s protein, two-chain form (Homo sapiens, UniProt P09871 16-688)
T1 construct: Also used here for C1s acting in human serum assays; also called human C1s; active C1s
T1 sequence: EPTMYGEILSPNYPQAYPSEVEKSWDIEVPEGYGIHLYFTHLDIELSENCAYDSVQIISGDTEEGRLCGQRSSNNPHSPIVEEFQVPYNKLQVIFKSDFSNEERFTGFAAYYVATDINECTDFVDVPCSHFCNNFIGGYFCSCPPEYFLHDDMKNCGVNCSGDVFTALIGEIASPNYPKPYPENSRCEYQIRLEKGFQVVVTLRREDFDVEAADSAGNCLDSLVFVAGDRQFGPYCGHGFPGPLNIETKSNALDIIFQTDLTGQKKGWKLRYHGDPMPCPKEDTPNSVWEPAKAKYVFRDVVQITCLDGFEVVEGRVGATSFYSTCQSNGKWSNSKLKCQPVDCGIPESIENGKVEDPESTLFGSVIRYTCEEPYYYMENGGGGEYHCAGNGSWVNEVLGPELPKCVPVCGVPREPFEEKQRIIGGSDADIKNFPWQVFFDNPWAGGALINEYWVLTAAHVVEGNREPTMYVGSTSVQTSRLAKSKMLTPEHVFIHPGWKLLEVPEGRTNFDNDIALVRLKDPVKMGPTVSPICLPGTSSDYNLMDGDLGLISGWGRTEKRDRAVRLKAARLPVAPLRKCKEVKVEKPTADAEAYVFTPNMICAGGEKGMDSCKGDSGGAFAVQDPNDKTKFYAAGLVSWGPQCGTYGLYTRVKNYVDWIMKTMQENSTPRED
Assay: kinetic binding measurement, method not stated; Table 9, activated C1s
# output: numeric value plus its unit

Below are worked cases with known answers.
1) VH3/Vk2 (antibody, V domains shown, member of group m7; also called VH3/Vκ2; VH variant 3 + Vk variant 2) VH: EVMLVESGGGLVKPGGSLRLSCAASGFTFSNYAMSWVRQAPGKGLEWVATISSGGSHTYYLDSVKGRFTISRDNSKDTLYLQMSSLRAEDTALYYCARLFTGYAMDYWGQGTSVTVSS VL: QIVLTQSPATLSLSPGERATMSCTASSSVSSSYLHWYQQKPGKAPKLWIYSTSNLASGVPSRFSGSGSGTDYTLTISSLQPEDFATYYCHQYYRLPPITFGQGTKLEIK = 0.274 nM
2) VH4/Vk2 (antibody, V domains shown, member of group m7; also called VH4/Vκ2; VH variant 4 + Vk variant 2) VH: EVQLVESGGGLVKPGGSLRLSCAASGFTFSNYAMSWVRQAPGKGLEWVATISSGGSHTYYLDSVKGRFTISRDNSKNTLYLQMNSLRAEDTALYYCARLFTGYAMDYWGQGTLVTVSS VL: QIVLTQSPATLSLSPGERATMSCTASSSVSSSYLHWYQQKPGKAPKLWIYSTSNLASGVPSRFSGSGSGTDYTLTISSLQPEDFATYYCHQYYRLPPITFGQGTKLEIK = 0.262 nM
3) VH3/Vk3 (antibody, V domains shown, member of group m7; also called VH3/Vκ3; VH variant 3 + Vk variant 3) VH: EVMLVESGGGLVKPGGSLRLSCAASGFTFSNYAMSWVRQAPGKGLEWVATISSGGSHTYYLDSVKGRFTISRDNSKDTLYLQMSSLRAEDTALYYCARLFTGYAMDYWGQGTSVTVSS VL: QIVLTQSPATLSLSPGERATLSCTASSSVSSSYLHWYQQKPGKAPKLWIYSTSNLASGVPSRFSGSGSGTDYTLTISSLQPEDFATYYCHQYYRLPPITFGQGTKLEIK = 0.335 nM

Next binder, please.
State the recorded Kd for this entry: VH1/Vk2 (antibody, V domains shown, member of group m7; also called VH1/Vκ2; VH variant 1 + Vk variant 2) VH: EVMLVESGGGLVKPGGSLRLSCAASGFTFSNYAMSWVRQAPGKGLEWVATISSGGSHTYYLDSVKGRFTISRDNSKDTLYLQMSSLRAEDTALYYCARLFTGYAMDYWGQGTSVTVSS VL: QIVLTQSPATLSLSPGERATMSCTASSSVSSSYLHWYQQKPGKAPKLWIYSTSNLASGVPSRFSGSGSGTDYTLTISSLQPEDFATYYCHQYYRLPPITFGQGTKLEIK
0.262 nM
